target: recombinant human Vps34 (Homo sapiens); assay: Vps34 KinaseGlo assay; conditions: KinaseGlo luminescence ATP detection; PI/OG substrate; 1 μM ATP; room temperature; 8 concentrations, n=2
Sequence (Q8NEB9 whole entry): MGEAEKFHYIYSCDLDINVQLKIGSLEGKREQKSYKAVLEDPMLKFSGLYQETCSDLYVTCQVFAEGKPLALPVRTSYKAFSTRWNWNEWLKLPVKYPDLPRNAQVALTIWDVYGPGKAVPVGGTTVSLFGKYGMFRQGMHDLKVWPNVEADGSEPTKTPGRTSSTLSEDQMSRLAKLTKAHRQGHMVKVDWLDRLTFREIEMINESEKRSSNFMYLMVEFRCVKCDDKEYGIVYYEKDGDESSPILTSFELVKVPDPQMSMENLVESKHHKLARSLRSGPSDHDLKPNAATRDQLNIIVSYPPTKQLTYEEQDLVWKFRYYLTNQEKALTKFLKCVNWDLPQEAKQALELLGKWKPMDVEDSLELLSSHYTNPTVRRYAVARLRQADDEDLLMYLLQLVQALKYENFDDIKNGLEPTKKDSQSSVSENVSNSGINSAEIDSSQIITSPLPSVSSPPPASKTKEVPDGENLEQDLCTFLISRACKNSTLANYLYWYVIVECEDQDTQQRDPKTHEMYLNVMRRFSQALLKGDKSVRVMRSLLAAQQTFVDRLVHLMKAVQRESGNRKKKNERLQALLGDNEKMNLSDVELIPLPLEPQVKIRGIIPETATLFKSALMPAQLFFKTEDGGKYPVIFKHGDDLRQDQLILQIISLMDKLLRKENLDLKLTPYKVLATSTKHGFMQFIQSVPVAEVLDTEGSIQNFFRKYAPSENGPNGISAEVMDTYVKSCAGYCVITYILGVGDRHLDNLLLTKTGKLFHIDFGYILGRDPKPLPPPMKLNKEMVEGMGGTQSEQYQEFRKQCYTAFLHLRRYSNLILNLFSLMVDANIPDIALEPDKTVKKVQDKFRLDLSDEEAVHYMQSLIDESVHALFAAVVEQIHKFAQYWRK
pIC50: −log10 of the molar value.
parameter: pIC50

>  <compound>
CNc1ncc(-c2ccnc(NCCCN)n2)c(CC2CC2)n1 [Example 14s]

>  <pIC50>
5.15

$$$$
>  <compound>
COc1ncc(-c2ccnc(Nc3ccncc3)n2)c(CC2CC2)n1 [Example 10u]

>  <pIC50>
7.04

$$$$
>  <compound>
O[C@H]1CC[C@H](Nc2nccc(-c3cncnc3CC3CC3)n2)CC1 [Example 6a]

>  <pIC50>
6.00

$$$$

I: CNc1ncc(-c2ccnc(NC3CCC(O)CC3)n2)c(CC2CC2)n1 (stereo not drawn) [Example 14k]
II: c1cc(Nc2nccc(-c3cncnc3CC3CC3)n2)ccn1 [Example 10v]
Identify the entry with the smaller pIC50: I or II . // respond with label for picked entry I
(I: 6.07, II: 6.67)

a: c1cc(Nc2nccc(-c3cnc(NC4CCC4)nc3CC3CC3)n2)ccn1 [Example 10f]
b: CC(C)(O)CNc1ncc(-c2ccnc(Nc3ccncc3)n2)c(C(F)(F)F)n1 [Example 24]
c: CC(C)(O)CNc1ncc(-c2ccnc(Nc3ccncc3)n2)c(CC2CC2)n1 [Example 10t]
Ascending sort, pIC50. Kindly provide the labels arranged according to the requested ordering. b, a, c

====

biological target: recombinant human Vps34 (Homo sapiens); assay: Vps34 KinaseGlo assay; settings: KinaseGlo luminescence ATP detection; PI/OG substrate; 1 μM ATP; room temperature; 8 concentrations, n=2
pIC50: −log10 of the molar value.
parameter: pIC50

Would you please look over these solved cases?
>  <compound>
Nc1ncc(-c2ccnc(Nc3ccccn3)n2)c(CC2CC2)n1 [Example 15e]

>  <experimental.target>
recombinant human Vps34 (Homo sapiens)

>  <pIC50>
6.71

$$$$
>  <compound>
Nc1ncc(-c2ccnc(NCCc3c[nH]c4ccccc34)n2)c(CC2CC2)n1 [Example 15p]

>  <experimental.target>
recombinant human Vps34 (Homo sapiens)

>  <pIC50>
6.91

$$$$
>  <compound>
CNc1ncc(-c2ccnc(NC3CCN(C)CC3)n2)c(CC2CC2)n1 [Example 14r]

>  <experimental.target>
recombinant human Vps34 (Homo sapiens)

>  <pIC50>
5.81

$$$$
>  <compound>
CNc1ncc(-c2ccnc(NC3CCCC3)n2)c(CC2CC2)n1 [Example 14h]

>  <experimental.target>
recombinant human Vps34 (Homo sapiens)

>  <pIC50>
5.87

$$$$
>  <compound>
CNc1ncc(-c2ccnc(Nc3cccnc3)n2)c(CC2CC2)n1 [Example 14l]

>  <experimental.target>
recombinant human Vps34 (Homo sapiens)

>  <pIC50>
7.32

$$$$

P: CNc1ncc(-c2ccnc(NC3CCC(N)CC3)n2)c(CC2CC2)n1 (stereo not drawn) [Example 14j]
Q: Nc1ncc(-c2ccnc(Nc3ccc(Cl)cc3)n2)c(CC2CC2)n1 [Example 15o]
R: Nc1ncc(-c2ccnc(Nc3ccc(Cl)cn3)n2)c(CC2CC2)n1 [Example 15v]
S: Cc1cc2cc(Nc3nccc(-c4cnc(N)nc4CC4CC4)n3)ccc2[nH]1 [Example 15w]
Number of compounds to sort: 4. Sort criterion: pIC50, ascending. Please respond by ranking the labels in the order requested. P, R, Q, S
